Protein target, amino acids: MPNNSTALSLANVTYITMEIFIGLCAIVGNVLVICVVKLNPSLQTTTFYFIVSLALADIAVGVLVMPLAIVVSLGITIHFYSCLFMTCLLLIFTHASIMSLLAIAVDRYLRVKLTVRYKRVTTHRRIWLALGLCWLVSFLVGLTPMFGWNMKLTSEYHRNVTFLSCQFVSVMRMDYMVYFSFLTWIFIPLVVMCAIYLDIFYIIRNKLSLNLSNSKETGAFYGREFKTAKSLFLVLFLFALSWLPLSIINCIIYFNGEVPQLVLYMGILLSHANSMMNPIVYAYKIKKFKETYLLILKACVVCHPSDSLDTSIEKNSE
pKi: −log10 of the molar value.
This section presents pKi values reported for the protein given by its sequence in the literature.
test readout: pKi

> print(dat)
                                    molecule  inequality.symbol  measurement
 1         COc1ccc(-n2cc3nc[nH]c(=O)c3n2)cc1                  =         7.27
 2  Nc1nc(OCCc2c[nH]c3ccc(Br)cc23)nc2c1ncn2[C@@H]1O[C@H](CO)[C@@H](O)[C@H]1O                  =         6.63
 3  O=C(NCCC(c1ccccc1)c1ccccc1)[C@H]1O[C@@H](n2cnc3c(NCc4cccc(I)c4)nc(Cl)nc32)[C@H](O)[C@@H]1O                  =         6.46
 4  O=C(NC1CCCCC1)[C@H]1S[C@@H](n2cnc3c(NCc4cccc(I)c4)ncnc32)[C@H](O)[C@@H]1O                  =         7.45
 5  Cn1cc2c(nc(NCCOc3ccccc3)n3nc(-c4ccco4)nc23)n1                  =         7.41
 6  CNc1nc(-n2cc(C(=O)NCc3ccc(Cl)cc3)cn2)nc2c1ncn2C1O[C@H](CO)[C@@H](O)[C@H]1O (stereo partly specified)                  =         6.80
 7  Nc1nc2nn(CCc3ccccc3)cc2c2nc(-c3ccc(Br)cc3)nn12                  =         6.66
 8  C=CC(=O)Nc1ccc(-c2cn3c(=O)n(-c4ccccc4)nc3c(N)n2)cc1                  <         4.52
 9  COc1ccc(-c2cnn(-c3nc(NCc4cccc(I)c4)c4ncn(C5O[C@H](CO)[C@@H](O)[C@H]5O)c4n3)c2)cc1 (stereo partly specified)                  =         6.49
10       Nc1nc2ccc(Cl)cc2c2cn(-c3ccccc3)nc12                  =         6.51
11  Cc1nn(C(C)c2ccccc2)c(=O)c2nc(C)n3nc(-c4ccccc4)cc3c12 (stereo unspecified)                  =         5.33
12  CCOC(=O)c1cnn(-c2nc(NC3CCCC3)c3ncn([C@@H]4O[C@H](CO)[C@@H](O)[C@H]4O)c3n2)c1                  =         7.72
13  Cc1nc(NC(=O)Cc2ccccc2)c2nn(-c3ccccc3)cc2n1                  =         6.92
14  OC[C@H]1OC(n2cnc3c(NCc4cccc(I)c4)nc(-n4cc(-c5nccc6ccccc56)cn4)nc32)[C@H](O)[C@@H]1O (stereo partly specified)                  =         6.96
15  CCCNc1cc(-n2cc(-c3ccc(Cl)s3)nn2)nc2c1ncn2[C@H]1[C@H](O)[C@H](O)[C@]2(C(=O)NC)C[C@H]12                  =         6.96
16              Clc1ncnc2sc(NCCN3CCOCC3)nc12                  <         4.00
17   Nc1nc(CCCc2ccccc2)nc2cn(-c3ccccc3F)nc12                  =         6.79
18  COc1ccc(-n2nc3c(N(C(=O)c4ccccc4)C(=O)c4ccccc4)nc4c([N+](=O)[O-])cccc4n3c2=O)cc1                  =         6.46
19  COc1ccc(-n2c(-c3sc(NC(=O)c4ccccc4)nc3-c3ccccc3)nc3ccccc3c2=O)cc1                  =         8.08
20  Cc1cc(C)cc(-c2nc(NC(=O)c3cncc(Br)c3)sc2-c2ccncc2)c1                  =         7.58
21     N#Cc1c(N)nc(SCc2ncc[nH]2)nc1-c1ccccc1                  =         6.46
22  Clc1ccc2nc(NCc3ccccc3)n3nc(-c4ccco4)nc3c2c1                  =         7.37
23  O=C(Nc1nc2ccccc2c2cn(-c3ccccc3)nc12)C(c1ccccc1)c1ccccc1                  =         8.05
24  COc1ccc(C(=O)Nc2ccc(-c3cn4c(=O)n(-c5ccccc5)nc4c(N)n3)cc2)cc1OC                  <         4.52
25  O=C([C@H]1S[C@@H](n2cnc3c(NCc4cccc(I)c4)nc(Cl)nc32)[C@H](O)[C@@H]1O)N1CCC(Cc2ccccc2)CC1                  =         6.06
26  CCOC(=O)c1cnc(NCc2ccc(-c3ccccc3)cc2)n2nc(-c3ccco3)nc12                  =         6.06
27  CCn1c(=O)c2[nH]c(-c3ccc(OCC(=O)Nc4ccc(F)cc4)cc3)nc2n(CCCOC)c1=O                  =         6.02
28  CCCn1c(=O)c2[nH]c(-c3cc(N)n(C)n3)nc2n(CCC)c1=O                  <         6.00
29  CCNC(=O)[C@H]1O[C@@H](n2cnc3c(NCc4ccccc4C)nc(Cl)nc32)[C@H](O)[C@@H]1O                  =         8.60
30   Cn1ncc2nc(N3CCOCC3)n3nc(-c4ccco4)nc3c21                  <         6.00
31  CCn1nnc([C@H]2O[C@@H](n3cnc4c(N)nc(N[C@H](CO)Cc5ccc(Br)cc5)nc43)[C@H](O)[C@@H]2O)n1                  =         7.08
32  CCCCCNC(=O)Nc1nc2nn(C)cc2c2nc(-c3ccco3)nn12                  =         8.71
33  Cn1cc2c(nc(NC(=O)Nc3cccc[n+]3C)n3nc(-c4ccco4)nc23)n1                  =         8.89
34  CCCn1c(=O)c2[nH]c(-c3cnn(Cc4noc(-c5ccccc5C(F)(F)F)n4)c3)nc2n(CCC)c1=O                  =         6.21
35  O=C(NCC1CC1)[C@H]1S[C@@H](n2cnc3c(NCc4cccc(I)c4)nc(Cl)nc32)[C@H](O)[C@@H]1O                  =         8.44
36            Oc1nc2ccccc2c2cc(-c3ccco3)nn12                  =         7.10
